B1: Hairpin Ribozyme (parent)
chain: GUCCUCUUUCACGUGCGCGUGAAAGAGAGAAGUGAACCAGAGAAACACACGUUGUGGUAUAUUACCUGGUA

- Variants of: B1
- TEST PROTOCOL: self-cleavage, relative activity (ratio to wild type); higher = more cleavage; co-transcriptional
MEASUREMENT TYPE: self-cleavage
// no unit, no text: just the number

{"MUTATIONS": "A26G C48G", "TEST RESULT": 0.14}
{"MUTATIONS": "U14A G68A", "TEST RESULT": 0.173}
{"MUTATIONS": "U2G U14G", "TEST RESULT": 0.322}

Here is the next item to consider.
self-cleavage reading for C3U U67A : 0.0952
